- Read-out: Bcl-2 (BAX) gene, BAX (gene 581)
- procedure-details: LTEA_HepaRG_BAX: Life Technologies and Expression Analysis (LTEA) Assay for Bcl-2 (BAX) gene using HepaRG (AID 2283470)
- experimental-parameters: mRNA level, 48 h; actives raise or lower the signal
Activity calls are given as the source filed them. The calls were made as follows: active = hit-call score of the fitted dose curve at least 0.9, where 1 is the maximum; inactive = score below 0.9.
Classes used: Yes for active, No for inactive

# molecule, answer-label
rows = [
    ("CCN(Cc1cccc(S(=O)(=O)O)c1)c1ccc(C(=C2C=CC(=[N+](CC)Cc3cccc(S(=O)(=O)O)c3)C=C2)c2ccccc2S(=O)(=O)[O-])cc1", "No"),
    ("CCCCCCCCCCCO", "No"),
    ("CC(O)CC(C)(C)O (centres undefined)", "No"),
    ("C[C@]12CC[C@@H]3c4ccc(O)cc4CC[C@H]3[C@@H]1CC[C@H]2O", "No"),
    ("CCCCOC(=O)CC(CC(=O)OCCCC)(OC(C)=O)C(=O)OCCCC", "No"),
    ("c1ccc2ccccc2c1", "No"),
    ("O=c1ccc2ccccc2o1", "No"),
    ("Oc1ccccc1", "No"),
    ("CC(C)(c1cc(Br)c(O)c(Br)c1)c1cc(Br)c(O)c(Br)c1", "Yes"),
    ("O=C(O)Cc1cc(I)c(Oc2ccc(O)c(I)c2)c(I)c1", "Yes"),
    ("COCC(C)OCC(C)OCC(C)O (centres undefined)", "No"),
    ("Cc1cn([C@H]2C[C@H](N=[N+]=[N-])[C@@H](CO)O2)c(=O)[nH]c1=O", "No"),
    ("Cc1occc1C(=O)Nc1ccc(C(=O)N2CCC(F)(F)/C(=C\\C(=O)N3CCC(N4CCCCC4)CC3)c3ccccc32)cc1", "No"),
    ("O=C(O)c1ccccc1-n1cc(C(=O)O)c(=O)c2cc(Nc3c(F)cc(F)cc3Cl)c(Cl)cc21", "No"),
    ("Clc1ccccc1C(c1ccccc1)(c1ccccc1)n1ccnc1", "Yes"),
    ("CCCCCc1ccc(N)cc1", "No"),
    ("Cc1oc2c(NC(=O)c3c(Cl)cccc3Cl)cccc2c1C(C)(C)O", "Yes"),
    ("CO[C@H]1/C=C/O[C@@]2(C)Oc3c(C)c(O)c4c(O)c(c(/C=N/N5CCN(C)CC5)c(O)c4c3C2=O)NC(=O)/C(C)=C\\C=C\\[C@H](C)[C@H](O)[C@@H](C)[C@@H](O)[C@@H](C)[C@H](OC(C)=O)[C@@H]1C", "No"),
    ("CCCCCCCCCCCC[N+](C)(C)C", "Yes"),
    ("CN(C[C@@H](CC[N+]12CCC(C3CCCCC3)(CC1)CC2)c1ccc(Cl)c(Cl)c1)C(=O)c1cc(C(F)(F)F)cc(C(F)(F)F)c1", "No"),
    ("CC/C(=C(/CC)c1ccc(O)cc1)c1ccc(O)cc1", "No"),
    ("CC(C)(O)c1ccc(CNC(=O)c2cccnc2Oc2ccc3nonc3c2)cc1", "No"),
    ("CN1C(=O)N(c2ccccc2Br)Cc2cnc(Nc3ccc4c(c3)OCC(CO)O4)nc21 (centres undefined)", "Yes"),
    ("CC[C@H](NC(=O)c1cc(F)ccc1NS(=O)(=O)c1cccc2cccnc12)c1ccccc1", "Yes"),
]

---

- procedure-details: ACEA_AR_antagonist_AUC_viability: ACEA Biosciences xCELLigence Real-Time Cell Analysis on Androgen Receptor Antagonism for Viability (AID 2283776);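 also: 22Rv1 human prostate cancer cells growing on impedance electrode plates; area under impedance growth curve at 80 h after dosing as viability; hits lower the growth signal relative to DMSO meaning cytotoxicity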
Inconclusive results are not listed. The source made the active and inactive calls. The calls were made as follows: active = hit-call score of the fitted dose curve at least 0.9, where 1 is the maximum; inconclusive = response in the unintended direction; inactive = score below 0.9.

# molecule, AC50
data = [
    ("O=CCCCC=O", "23.3 µM (active)"),
    ("CCCCCCCCCC(=O)O", "inactive"),
    ("CCO[Si](CCCNC(N)=O)(OCC)OCC", "inactive"),
    ("C[C@]12CC[C@@H]3c4ccc(O)cc4CC[C@H]3[C@@H]1CC[C@H]2O", "84.1 µM (active)"),
    ("O=C(Nc1ccc(Cl)cc1)Nc1ccc(Cl)c(Cl)c1", "5.85 µM (active)"),
    ("OCCO", "inactive"),
    ("Cc1cc2c(cc1C(F)(F)F)N(C(=O)Nc1ccc(Oc3cccnc3C)nc1)CC2", "15.1 µM (active)"),
    ("c1ccc2ccccc2c1", "inactive"),
    ("Cc1ncc(CO)c(CO)c1O", "inactive"),
    ("CCCCCc1ccc(N)cc1", "inactive"),
    ("OC12N=C(c3ccccc3)SC1Cc1cc(Cl)ccc12 (stereo unspecified)", "76.2 µM (active)"),
    ("O=c1c(-c2ccc(O)cc2)coc2cc(O)cc(O)c12", "28.8 µM (active)"),
    ("CN(C)C(=O)C1(N2CCCCC2)CCN(CC[C@@]2(c3ccc(Cl)c(Cl)c3)CN(C(=O)c3ccccc3)CCO2)CC1", "11.5 µM (active)"),
    ("CC/C(=C(/CC)c1ccc(O)cc1)c1ccc(O)cc1", "18 µM (active)"),
    ("Cc1ccc2oc(CN(Cc3ccccc3)C(=O)Nc3c(F)cc(F)cc3F)c(-c3ccc(Cl)cc3)c2c1", "14.1 µM (active)"),
    ("O=c1[nH]sc2ccccc12", "7.87 µM (active)"),
    ("CC1(C)NC(=O)N(c2ccc([N+](=O)[O-])c(C(F)(F)F)c2)C1=O", "68.9 µM (active)"),
    ("Cc1cc(F)ccc1-c1cc(N2CC[C@@H](O)[C@H]2CO)ncc1N(C)C(=O)C(C)(C)c1cc(C(F)(F)F)cc(C(F)(F)F)c1", "10.1 µM (active)"),
    ("Clc1cc(Cl)c2c(c1)N=C1CCCCCN1C2", "inactive"),
    ("CCCCCCCCCCCCO", "inactive"),
    ("O=C1c2ccccc2C(=O)N1CCc1noc(-c2ccc(CN3CCCCCC3)s2)n1", "6.41 µM (active)"),
]

---

- Read-out: Plasminogen activator inhibitor-1 (PAI1), SERPINE1 (gene 5054)
- procedure-details: BSK_BE3C_PAI1: BioMAP Diversity Plus: BE3C Assay for Plasminogen activator inhibitor-1 (PAI1) Biomarker Activity (AID 2283037)
- experimental-parameters: primary human bronchial epithelial cells; actives raise or lower the signal
- Experimental: BSK_BE3C is a cell-based, multiplexed-readout assay that uses bronchial epithelial cell, a human lung primary cell, with measurements taken at 24 hours after chemical dosing in a 96-well plate.BSK_BE3C_PAI1 is an assay component measured in the BSK_BE3C assay. It measures PAI-1 antibody related to regulation of gene expression using ELISA technology.Data from the assay component BSK_BE3C_PAI1 was analyzed into 1 assay endpoint. […]
The source made the active and inactive calls. The calls were made as follows: active = hit-call score of the fitted dose curve at least 0.9, where 1 is the maximum; inactive = score below 0.9.
Possible outcomes: active, inactive

# smiles-string, answer-label
data = [
    ("O=C(O)Cn1c(=O)n(Cc2ccc(Br)cc2F)c(=O)c2ccc(Cl)cc21", "inactive"),
    ("CN(C)C(=O)C1(N2CCCCC2)CCN(CC[C@@]2(c3ccc(Cl)c(Cl)c3)CN(C(=O)c3ccccc3)CCO2)CC1", "active"),
    ("C[C@]12CC[C@@H]3c4ccc(O)cc4CC[C@H]3[C@@H]1CCC2=O", "inactive"),
    ("NC(=O)c1nc(-c2cccc(-c3cc(F)ccc3OCC(F)(F)C(F)(F)F)c2)n[nH]1", "active"),
    ("O=C=NCCCCCCN=C=O", "inactive"),
    ("CCN(CC)C(=O)c1cc(S(=O)(=O)Cc2ccccc2)c(N2CCC(c3ccccc3)CC2)cc1N(CC)CCN(C)C", "active"),
    ("Oc1ccc2ccccc2c1", "inactive"),
    ("Cc1oc2c(NC(=O)c3c(Cl)cccc3Cl)cccc2c1C(C)(C)O", "inactive"),
]

---

- procedure-details: BSK_3C_SRB: Viability Assessment in the BioMAP Diversity Plus: 3C Assay (AID 2283023);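 also: cells read 24 h after compound dosing; fitted both ways against DMSO so a hit may be signal rise or drop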
- experimental-parameters: primary human endothelial cells (HUVEC)
Activity calls are given as the source filed them. How the source made its calls: active means hit-call score of the fitted dose curve at least 0.9, where 1 is the maximum; inactive means score below 0.9.

# smiles-string, AC50
data = [
    ("CCCCCCCCOc1ccc(C(=O)c2ccccc2)c(O)c1", "28.7 µM (active)"),
    ("NC(=O)c1nc(-c2cccc(-c3cc(F)ccc3OCC(F)(F)C(F)(F)F)c2)n[nH]1", "31.9 µM (active)"),
    ("COc1ccc2cc(S(=O)(=O)N[C@H](CC(=O)N[C@H](Cc3ccc(CN4[C@H](C)CCC[C@@H]4C)cc3)C(=O)N(C)C(C)C)c3ccc4c(c3)OCO4)ccc2c1", "20.8 µM (active)"),
]

---

- procedure-details: Tanguay_ZF_120hpf_SOMI_legacy: (Legacy) Oregon State University Tanguay Lab 120 Hour Post-fertilization zebrafish Assay for Somite Malformation (AID 2283647)
Records with an inconclusive call do not appear. Calls of active or inactive are those of the source. How the source made its calls: active means hit-call score of the fitted dose curve at least 0.9, where 1 is the maximum; inconclusive means response in the unintended direction; inactive means score below 0.9.

# compound, outcome
rows = [
    ("CCCCCCCCOc1ccc(C(=O)c2ccccc2)c(O)c1", "inactive"),
    ("CC(O)CC(C)(C)O (centres undefined)", "inactive"),
    ("O=CCCCC=O", "inactive"),
    ("CN(C)C(=O)C1(N2CCCCC2)CCN(CC[C@@]2(c3ccc(Cl)c(Cl)c3)CN(C(=O)c3ccccc3)CCO2)CC1", "inactive"),
]

Attribution: PubChem BioAssay (EPA / NIEHS)
